Tested on: human acute myeloid leukemia cell line ML-1
Experiment: Cytostatic activity on leukemia cell line ML-1 (WST-1)
Type: cell-based
Conditions: Homo sapiens, ML1; 10 μmol/L, 72 hours, ML-1 cells; read-out: cytostatic rate ML-1 (%) (10 μmol/L)
Where a name gives a salt, the structure may show the parent alone.
// values below are reported inhibition at 10 µM
endpointLabel: inhibition at 10 µM (%)

1) CC(C)CC(=O)N1CCN(C(=O)c2ccc(/C=C/c3n[nH]c4ccccc34)cc2)CC1 | 74
2) O=C(NC1CCN(C(=O)c2ccc(/C=C/c3n[nH]c4ccccc34)cc2)CC1)N1CCOCC1 | 86
3) O=C(c1ccc(/C=C/c2n[nH]c3ccccc23)cc1)N1CCC(N2CCOCC2)CC1 | 58
4) O=CN1CCN(C(=O)c2ccc(/C=C/c3n[nH]c4ccccc34)cc2)CC1 | 89
5) CN(C)C(=O)c1ccc(/C=C/c2n[nH]c3ccccc23)cc1 | 93
6) CC(C)(C)OC(=O)NN1CCN(C(=O)c2ccc(/C=C/c3n[nH]c4ccccc34)cc2)CC1 | 81
7) CN1CCCC1C(=O)N1CCN(C(=O)c2ccc(/C=C/c3n[nH]c4ccccc34)cc2)CC1 (stereo not shown) | 85
8) CC(=O)N1CCN(C(=O)c2ccc(/C=C/c3n[nH]c4ccccc34)cc2C)CC1 | 87
9) O=C(c1ccc(/C=C/c2n[nH]c3ccccc23)cc1)N1CCN(C(=O)C2CC2)CC1 | 83
10) CN1CCC(C(=O)N2CCN(C(=O)c3ccc(/C=C/c4n[nH]c5ccccc45)cc3)CC2)CC1 | 84
11) CNCCNC(=O)c1ccc(/C=C/c2n[nH]c3ccccc23)cc1 [Compound 112, hydrochloride] | 83
12) COCC(=O)N1CCN(C(=O)c2ccc(/C=C/c3n[nH]c4ccccc34)cc2)CC1 | 86
13) O=C(c1ccccc1)N1CCN(C(=O)c2ccc(/C=C/c3n[nH]c4ccccc34)cc2)CC1 | 82
14) O=C(c1ccc(/C=C/c2n[nH]c3ccccc23)cc1)N1CCC(C(=O)N2CCOCC2)CC1 | 89
15) C[C@H]1CN(C(=O)c2ccc(/C=C/c3n[nH]c4ccccc34)cc2)CCN1 [Compound 101, dihydrochloride] | 77
16) CC(=O)N(C)CC(=O)N1CCN(C(=O)c2ccc(/C=C/c3n[nH]c4ccccc34)cc2)CC1 | 88
